As shown below, each of these binders has a reported Inhibition of binding (%) value.
target: T1, thyroid stimulating hormone receptor (full length human TSHR) (human, UniProt P16473 22-764); assay: competitor ^125I-K1-70 IgG, TSHR coated tubes; 100 µg/mL in HBD
T1 construct: Full length TSHR coated onto plastic tubes (TSHR coated tubes, as in WO2004/050708A2); also called TSH receptor
Provide only the numeric value, understood in %.

Noted for K1-70 IgG (antibody, V domains shown, Human IgG1 lambda purified from hetero-hybridoma supernatant) VH: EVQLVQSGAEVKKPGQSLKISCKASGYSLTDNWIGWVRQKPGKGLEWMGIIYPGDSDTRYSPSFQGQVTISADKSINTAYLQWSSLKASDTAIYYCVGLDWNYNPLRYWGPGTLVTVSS VL: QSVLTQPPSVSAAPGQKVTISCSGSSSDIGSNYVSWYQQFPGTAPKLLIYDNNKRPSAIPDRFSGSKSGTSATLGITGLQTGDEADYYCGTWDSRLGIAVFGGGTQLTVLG : its Inhibition of binding (%) reads 93.6

Noted for K1-18 Fab (Fab, V domains shown) VH: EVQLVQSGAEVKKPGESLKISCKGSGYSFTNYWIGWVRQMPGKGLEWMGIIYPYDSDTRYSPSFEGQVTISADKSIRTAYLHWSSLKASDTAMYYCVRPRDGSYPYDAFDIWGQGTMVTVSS VL: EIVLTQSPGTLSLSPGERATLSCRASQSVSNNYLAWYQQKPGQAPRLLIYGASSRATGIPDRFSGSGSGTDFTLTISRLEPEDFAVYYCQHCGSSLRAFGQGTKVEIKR : its Inhibition of binding (%) reads 83.6

Noted for K1-18 IgG (antibody, V domains shown, Human IgG1 kappa purified from hetero-hybridoma supernatant; it is not part of the secreted protein; also called human monoclonal TSHR autoantibody K1-18 (stimulating)) VH: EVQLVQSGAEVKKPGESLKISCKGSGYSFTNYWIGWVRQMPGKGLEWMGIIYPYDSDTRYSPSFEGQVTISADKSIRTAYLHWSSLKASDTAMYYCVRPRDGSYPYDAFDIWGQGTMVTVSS VL: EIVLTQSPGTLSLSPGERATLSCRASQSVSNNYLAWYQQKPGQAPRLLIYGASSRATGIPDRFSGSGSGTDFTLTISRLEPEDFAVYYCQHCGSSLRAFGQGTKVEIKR : its Inhibition of binding (%) reads 93.5

Noted for K1-70 Fab (Fab, V domains shown) VH: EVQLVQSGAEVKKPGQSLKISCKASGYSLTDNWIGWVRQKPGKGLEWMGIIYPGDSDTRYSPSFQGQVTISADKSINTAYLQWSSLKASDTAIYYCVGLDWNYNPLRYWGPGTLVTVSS VL: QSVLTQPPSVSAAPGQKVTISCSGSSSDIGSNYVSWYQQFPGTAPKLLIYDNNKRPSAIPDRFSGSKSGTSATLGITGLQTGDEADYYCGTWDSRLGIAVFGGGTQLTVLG : its Inhibition of binding (%) reads 90.8

This collection of values is drawn from patent US20110300138A1.
